system: MS2 coat protein; assay: apparent Kd, MS2 coat protein; higher = weaker binding; RNA-MaP array; conditions: designed as: ON switch for flavin mononucleotide; no ligand
Give measured apparent Kd for each item. Keep answers brief.
One number for each entry, in nM.

sequence_input=UUGAUCUGACGAGGAUAUAUCAUAACACCUUUGAUAGAAGGCGUGAUCGACAUGAGGAUCACCCAUGUGCGUGACUUUGGUAGU value_reported=11.6
sequence_input=UACAUGAGGAUCACCCAUGUCAAACCGUUCUAGGACUAGGUAAGAAGGGUCAUCCUACAAUGUUGACAGGAUAUUACGUAGCUG value_reported=348
sequence_input=AAACAUACGUGAGGAUAUCCCGUUUGAGAGGCUAGUAUCAUCGAAACAUGAGGAUCACCCAUGUCGGAGAAGGCACUACAGGAG value_reported=6.63
sequence_input=GCCUUAGGGGCAGGAUAUUUCGAGGACCUCAACAUGAGGAUCACCCAUGUACCGCAAUCGUCUCUAAAGAAGGGCCUCUUGCUC value_reported=53.9

Value sought for every listed sequence: apparent Kd.
1. CGUGCAUGCUAGUAGGAUAUCCCGCAUGAAACAUGAGGAUCACCCAUGUAGAAGAUCUAUGAUCGGGAGAAGGACUCGUGAGAAAC
2. UGUAGCCGCGAGAAGGUAAGCUAAGGAUGUGGUAUCAACGACUACAUGAGGAUCACCCAUGUGCUUAAGGAUAUCGAGGUGGAG
3. AUGGUCUCUUAAGGAUAUAGCUAUACAGAGCGCACGUAGGUUAAAUACAUGAGGAUCACCCAUGUCUAGAAGGUAAGUACCGGA

34.6
62.5
11.6

Go through the list and state apparent Kd for each entry.
1. CAGAGCCAAAACAAGGAUAUACAUAACAUUACAUGAGGAUCACCCAUGUUAUAGCUAACCUUGUAGUAGAAGGUGUUUGGCAACAU
2. UCAUCACAUGAGGAUCACCCAUGUCGUAGGUGAUCAGGAUAUGCCUAUGCCUCCAUGGCGGCAGAAGGGAUGCGGG
3. GUGUUCACUGCAGGAUAUGUACAUGAGGAUCACCCAUGUUGAAACGGCUGGAAUCGGCAGAUGAAACAGAAGGGCAUGAAAAUU

[7.36, 795, 12.8]

###

test system: MS2 coat protein; assay: apparent Kd, MS2 coat protein; higher = weaker binding; RNA-MaP array; theophylline 2 mM where present; conditions: designed as: OFF switch for theophylline; no ligand
Would you kindly list apparent Kd for each of these sequences?
One number for each entry, in µM.

# annotated cases, reported apparent Kd shown
sequence_input=GAUGAACUAUUUGAUACCAGACUACAUGAGGAUCACCCAUGUGAGUUUAUACUUCUGUCAGUCCCUUGGCAGCAAAUAGUUUAUC recorded_endpoint="apparent Kd" value_reported=0.0192
sequence_input=CAUAUUGUAACUGAUACCAGUGUACUGACAUGAGGAUCACCCAUGUUGGGUUUUGUUGUACACCCUUGGCAGCAGAAUCAAUAUG recorded_endpoint="apparent Kd" value_reported=0.0687
sequence_input=GAUGAUAUUGCAGAUACCAGACACAUGAGGAUCACCCAUGUCGCUGGGUUACUGGGUCGUGUCCCUUGGCAGCUGCGAUAUCAUC recorded_endpoint="apparent Kd" value_reported=0.044

API: the following record is the query input.
Value of apparent Kd reported for the sequence UUCUGGACCCGUGAUACCAGAGACAUGAGGAUCACCCAUGUACAUGAGGAUCACCCAUGUCUCCCUUGGCAGCACUGCAGGGAGC is 0.115
